# PROTOCOL: Cytotoxicity against latently HIV1 infected OM10.1 cells by MTT method
# Type: cell-based
# PROTOCOL_CONDITIONS: human, OM10.1 cells latently infected with HIV-1
PROPERTY_MEASURED: CC50

# CPD_SMILES, PROPERTY_MEASURED, RECORDED_RESULT
measured = [
    ("Cn1cc(C(=O)O)c(=O)c2ccc(N3CCN(c4cccc(C(F)(F)F)c4)CC3)cc21", "CC50", "5 µg/mL"),
    ("Cn1cc(C(=O)O)c(=O)c2ccc(N3CCN(c4nc5ccccc5s4)CC3)cc21", "CC50", "5 µg/mL"),
]
